Test system: Jurkat
test-method-notes: Antiproliferative activity against human Jurkat cells after 72 hrs by MTT assay
Format: functional, cell-based
Documented pIC50 across a set of compounds
// pIC50 here means minus log10 of the molar concentration (mol/L)

Record excerpt, results attached:
>>> assay_value("COc1cc(-c2nc(N(C)C)sc2-c2ccc(C)cc2)cc(OC)c1OC")
5.18
>>> assay_value("COc1cc(-c2nc(C)sc2-c2ccc(C)cc2)cc(OC)c1OC")
6.29
>>> assay_value("COc1ccc(-c2sc(N(C)C)nc2-c2cc(OC)c(OC)c(OC)c2)cc1")
5.12
>>> assay_value("CNc1nc(-c2cc(OC)c(OC)c(OC)c2)c(-c2ccc(C)cc2)s1")
7.72

The record that follows has no pIC50 shown yet.
Req: Tell me the measured pIC50 of `CNc1nc(-c2cc(OC)c(OC)c(OC)c2)c(-c2ccc3ccccc3c2)s1` , please.
Resp: 7.29

Source of measurements: ChEMBL document CHEMBL2202972
